test: Clearance in Sprague-Dawley rat at 1 mg/kg, iv measured over 8 hrs by LC-MS/MS analysis; type: ADME, organism-based; conditions: in vivo
measured_metric: clearance (L/h/kg)
Answer in L/h/kg, number only, no unit symbol.

[in] Query (molecule): COc1cccc(C(=O)N[C@H]2C[C@@](N)(C(=O)O)[C@@H]3[C@@H](C(=O)O)[C@@H]32)c1 ; field requested: clearance
[out] 1.1

====

biological target: Metabotropic glutamate receptor 2 (Homo sapiens, UniProt Q14416); assay: Agonist activity at recombinant human mGlu2 receptor expressed in hamster AV12 cells co-expressing rat EAAT1/Galpha15 assessed as induction of increase in Ca2+ flux after 2.5 mins by Fluo-3 AM dye-based FLIPR assay
Sequence (Q14416 whole entry): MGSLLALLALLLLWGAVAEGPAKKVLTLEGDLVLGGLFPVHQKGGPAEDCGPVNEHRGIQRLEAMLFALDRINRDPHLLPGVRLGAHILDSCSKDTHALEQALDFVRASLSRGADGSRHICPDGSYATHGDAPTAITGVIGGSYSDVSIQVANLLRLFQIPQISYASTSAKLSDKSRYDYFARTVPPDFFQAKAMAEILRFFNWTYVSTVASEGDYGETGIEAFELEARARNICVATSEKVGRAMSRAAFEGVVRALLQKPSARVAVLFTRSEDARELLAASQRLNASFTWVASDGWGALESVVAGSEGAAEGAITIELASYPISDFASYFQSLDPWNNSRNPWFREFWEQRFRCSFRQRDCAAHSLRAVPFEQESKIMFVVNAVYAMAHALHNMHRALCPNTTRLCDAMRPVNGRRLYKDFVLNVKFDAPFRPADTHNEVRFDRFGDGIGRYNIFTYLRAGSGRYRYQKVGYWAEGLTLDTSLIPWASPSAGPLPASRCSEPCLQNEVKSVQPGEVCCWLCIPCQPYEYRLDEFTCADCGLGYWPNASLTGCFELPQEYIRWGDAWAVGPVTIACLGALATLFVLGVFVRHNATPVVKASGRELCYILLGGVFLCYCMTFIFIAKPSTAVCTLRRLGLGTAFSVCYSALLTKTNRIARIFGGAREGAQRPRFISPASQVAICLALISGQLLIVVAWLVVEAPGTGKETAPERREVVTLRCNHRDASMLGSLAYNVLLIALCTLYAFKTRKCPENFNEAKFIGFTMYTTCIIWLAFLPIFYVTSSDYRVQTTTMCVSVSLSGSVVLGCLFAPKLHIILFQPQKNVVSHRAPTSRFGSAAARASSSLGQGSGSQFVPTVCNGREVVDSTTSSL
measured_metric: pEC50
Lab note — pEC50 values are minus log10 of concentrations in M.

[in] Query (molecule): COc1cccc(C(=O)N[C@H]2C[C@@](N)(C(=O)O)[C@@H]3[C@@H](C(=O)O)[C@@H]32)c1 ; field requested: pEC50
[out] 6.56
